The reported measurements were obtained from the RNAGym collection of RNA variant scans (doi:10.7554/elife.80360).

The reader will find reported self-cleavage values listed item by item below.
B1: HDV Ribozyme (parent)
chain: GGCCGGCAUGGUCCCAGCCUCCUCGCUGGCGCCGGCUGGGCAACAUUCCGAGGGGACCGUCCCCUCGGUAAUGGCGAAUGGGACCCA

Variants of: B1
assay.info: self-cleavage, relative activity (ratio to wild type); higher = more cleavage; co-transcriptional
No unit in the answer, please; the number alone is enough.

Request: So what does the record say about self-cleavage for A16C U60C ?
Result: 0.369

Request: Requested field: self-cleavage. Item: G1A G5A
Result: 0.0755

Request: Request the reported self-cleavage associated with G17U U79G
Result: 0.406

Request: Fill blank: measured self-cleavage of the variant C41U U47C is ____.
Result: 0.799

Request: So what does the record say about self-cleavage for U72G G76C ?
Result: 0.594

Request: Given the entry G17U U23G , report its measured self-cleavage.
Result: 0.0692

Request: Tell me the measured self-cleavage of G6A U37C , please.
Result: 0.853
